- Test system: OVCAR-8
- protocol: NCI tumour cell line growth inhibition, 48 h
The source made the active and inactive calls. Rule as the data show it: active = GI50 up to about 1.1 µM and inactive = higher.
property: GI50

[in] Using the record for ClCCCN1CCCCC1CCl (stereo not drawn) , report its GI50.
[out] > 100 µM (inactive)

[in] Using the record for COC(=O)C1CC2(CC3=C1CCCC3)OCCO2 (stereo not drawn) , report its GI50.
[out] > 100 µM (inactive)

[in] Using the record for `O=c1c2cc(I)ccc2nc(SCc2nncs2)n1Cc1ccccc1` , report its GI50.
[out] 36.5 µM (inactive)

[in] Using the record for `N#CC1(N2CCCC2)CCC2(CC1)OCCO2` , report its GI50.
[out] > 100 µM (inactive)

[in] Using the record for `CCOC(=O)COc1ccc(/C=C/C(=O)c2ccc(OC)cc2)cc1` , report its GI50.
[out] 24.5 µM (inactive)

[in] Using the record for `N#Cc1nc(-c2cccs2)oc1N` , report its GI50.
[out] > 100 µM (inactive)

[in] Using the record for O=C1c2ccccc2C2(c3ccc(F)cc3)NCCN12 (stereo not drawn) , report its GI50.
[out] > 100 µM (inactive)

----------
- Tested on: SK-OV-3
- protocol: NCI tumour cell line growth inhibition, 48 h
Calls of active or inactive are those of the source. Cut-off read from the data, not from the text of the source: active = GI50 up to about 1.1 µM and inactive = higher.
property: GI50

Recorded results for 3 compounds are shown here.
compound	GI50
Cn1c(=O)c2c(nc3sc4ncccc4c(=O)n32)n(C)c1=O	> 100 µM (inactive)
COc1cc(/C=C2\C[C@H]3[C@@H]4CCC5=CC(=O)CC[C@]5(C)[C@H]4CC[C@]3(C)C2=O)cc(OC)c1OC	29.4 µM (inactive)
COc1ccc2c(n1)Sc1nc3ccccc3nc1N2	37.2 µM (inactive)

[in] Using the record for `CCOC(=O)c1nnc2c(C#N)c(-c3ccccc3)c(C)n2c1N` , report its GI50.
[out] 23.9 µM (inactive)

----------
- Tested on: OVCAR-5
- protocol: NCI tumour cell line growth inhibition, 48 h
Active and inactive are the calls of the source. No stated cut-off is given here; in the data, active = GI50 up to about 1.1 µM and inactive = higher.
property: GI50

compound	GI50
Cc1ccc(S(=O)(=O)OC2=C/C(=N\c3onc(C)c3C)c3ccccc3C2=O)cc1	20.3 µM (inactive)
CCCCCCCCCCCc1c(O)c(=O)c2c(oc3c(=O)c(CCCCCCCCCCC)c(O)c(=O)c3n2-c2ccc(N(C)C)cc2)c1=O	23.8 µM (inactive)

[in] Using the record for `CN(C(=O)[C@@H](NC(=O)OC(C)(C)C)c1ccccc1)[C@H]1CCCC[C@@H]1N1CCCC1` , report its GI50.
[out] > 100 µM (inactive)

[in] Using the record for `O=C(O)CCSc1ncnc2[nH]cnc12` , report its GI50.
[out] > 100 µM (inactive)

[in] Using the record for `C[C@]12CC[C@H]3[C@@H](CC[C@]4(O)C[C@@H](O)CC[C@]34CO)[C@@]1(O)CC[C@@H]2C1=CC(=O)OC1` , report its GI50.
[out] 3.07 µM (inactive)

----------
- Test system: CAKI-1
- protocol: NCI tumour cell line growth inhibition, 48 h
Calls of active or inactive are those of the source. Cut-off read from the data, not from the text of the source: active = GI50 up to about 1.1 µM and inactive = higher.
property: GI50

Recorded results for 5 compounds are shown here.
compound	GI50
CC(C)(CCCCC(C)(C)C1NC(=O)N1)C1NC(=O)N1	> 10 µM (inactive)
COC(=O)C1=C(C(=O)OC)C2(CCCCCC2=O)OC1=O (stereo unspecified)	> 100 µM (inactive)
C/C(=C\c1ccccc1)C(=O)CCN1CCOCC1	18.1 µM (inactive)
O=C(O)CCNCCCCNCCC(=O)O	> 100 µM (inactive)
O=C(NC(=O)c1ccccc1)OC(c1ccccc1)C1CO1 (stereo unspecified)	> 100 µM (inactive)

[in] Using the record for CCOc1cc(NC(C)=O)ccc1C(=O)NN1C(=O)C(Oc2ccccc2)C1c1ccccc1 (stereo unspecified) , report its GI50.
[out] 52.4 µM (inactive)

[in] Using the record for CC(=O)OC1CC2C(C)(C)C(=O)C=C[C@]2(C)C2CCC3(C)C(=CCC3[C@H](CO)C[C@H](O)C(=O)C(C)(C)O)[C@]12C (stereo partly specified) , report its GI50.
[out] 15.9 µM (inactive)

[in] Using the record for Cc1cccc(C(C)O)n1 (stereo unspecified) , report its GI50.
[out] > 100 µM (inactive)

[in] Using the record for `CC(C)(C)OC(=O)N/N=C(/N)c1ccccc1` , report its GI50.
[out] > 100 µM (inactive)

[in] Using the record for N#C[BH2-][n+]1cn(C2CC(O)C(COP(=O)(O)OC3CC(n4cnc5c(=O)[nH]c(N)nc54)OC3CO)O2)c2nc(N)[nH]c(=O)c21 (stereo unspecified) , report its GI50.
[out] > 100 µM (inactive)

[in] Using the record for `Oc1cc(Cl)cc2cc(Cl)cnc12` , report its GI50.
[out] 12.9 µM (inactive)

----------
- System: SNB-75
- protocol: NCI tumour cell line growth inhibition, 48 h
Calls of active or inactive are those of the source. Rule as the data show it: active = GI50 up to about 1.1 µM and inactive = higher.
Hi! Could you answer with just one of these? label 1 for active, label 0 for inactive

Consider the worked cases shown below.
compound	tgt	labelValue
Cc1ccc(S(=O)(=O)N/N=C/c2oc(-c3cccc([N+](=O)[O-])c3)c(-c3cccc([N+](=O)[O-])c3)c2[N+](=O)[O-])cc1	SNB-75	label 0
C=C1C[C@@H](O)[C@@H](Br)C(C)(C)[C@]12CCC(C)(Br)C(Cl)C2 (stereo partly specified)	SNB-75	label 0
CCCCCCCCCCCc1c(O)c(=O)c2c(oc3c(=O)c(CCCCCCCCCCC)c(O)c(=O)c3n2-c2ccc(N(C)C)cc2)c1=O	SNB-75	label 0
CCOC(=O)c1c(SCCN2CCOCC2)n(-c2ccccc2)c(=S)n(-c2ccccc2)c1=O	SNB-75	label 0
CCOC(=O)CCC(NC(=O)c1ccc(Nc2nc3ccccc3n3cccc23)cc1)C(=O)OCC (stereo unspecified)	SNB-75	label 0
CCOC(=O)/C(=C\NCC(OCC)OCC)c1nc2ccccc2[nH]1	SNB-75	label 0
CCCCCCCCCCCc1cc(=O)c2c(O)cccc2o1	SNB-75	label 0
CCOC(=O)COc1ccc(/C=C/C(=O)c2ccc(OC)cc2)cc1	SNB-75	label 0
CCOP(=O)(Nc1ccc(-c2ccc(N)cc2)cc1)OCC	SNB-75	label 0
C/C(=C\c1ccccc1)C(=O)CCN1CCOCC1	SNB-75	label 0

[in] # outcome recorded in this test, key = O=C(NC(=O)c1ccccc1)OC(c1ccccc1)C1CO1 (stereo unspecified)
[out] label 0

[in] # outcome recorded in this test, key = `CCC(=O)Nc1ccc(/N=C/c2cccc(Oc3ccccc3)c2)cc1`
[out] label 0

[in] # outcome recorded in this test, key = `Nc1c(S(=O)(=O)O)cc(S(=O)(=O)O)c2ccc(/N=N/c3ccccc3)c(O)c12`
[out] label 0

[in] # outcome recorded in this test, key = `Cc1ccc(NC(=O)NC(=O)c2ccc([N+](=O)[O-])cc2[N+](=O)[O-])cc1Oc1ncc(Cl)cn1`
[out] label 1

[in] # outcome recorded in this test, key = `CCOC(=O)C1(C(=O)OCC)C[C@]23OCCC(=O)[C@H]2[C@H]2C(=O)OC(C)(C)O[C@]23C1`
[out] label 0

[in] # outcome recorded in this test, key = N#C[BH2-][n+]1cn(C2CC(O)C(COP(=O)(O)OC3CC(n4cnc5c(=O)[nH]c(N)nc54)OC3CO)O2)c2nc(N)[nH]c(=O)c21 (stereo unspecified)
[out] label 0

----------
- Test system: IGROV-1
- protocol: NCI tumour cell line growth inhibition, 48 h
Activity calls are given as the source filed them. Cut-off read from the data, not from the text of the source: active = GI50 up to about 1.1 µM and inactive = higher.
Readings of GI50 for the listed molecules

molecule	GI50
CCOC(=O)C(Cc1ccccc1)NC(=O)c1nc[nH]c1/N=N/N(C)C (centres undefined)	> 100 µM (inactive)
Cc1c(C)c(C)c(CSC(=N)N)c(C)c1C	33.6 µM (inactive)
O=C(/C=C/C=C/c1ccccc1)c1ccc2c(c1)CCCC2	42.8 µM (inactive)

[in] Using the record for `COc1ccc2nc3cc(Cl)ccc3c(NCCNC(=O)Cn3c(=O)n(C)c(=O)c4c3nc3c(c(=O)n(C)c(=O)n3C)[n+]4[O-])c2c1` , report its GI50.
[out] 19.1 µM (inactive)

[in] Using the record for `N#Cc1nc(/C=C/c2cccnc2)oc1N` , report its GI50.
[out] > 100 µM (inactive)

[in] Using the record for CCOC(OCC)C(CC)[Se]c1ccccc1[N+](=O)[O-] (centres undefined) , report its GI50.
[out] 3.48 µM (inactive)

[in] Using the record for `COc1cc(CC(=O)O)c([N+](=O)[O-])cc1OC` , report its GI50.
[out] > 100 µM (inactive)

[in] Using the record for `COc1cc2c(/C=C3/C(=O)Nc4cccc(Cl)c43)c(Cl)[nH]c2cc1C` , report its GI50.
[out] 1.59 µM (inactive)

[in] Using the record for `CCOC(=O)c1ccc(N2C(=S)N(C(=O)c3ccccc3)C(=N/c3ccccc3)/C2=N\c2ccccc2)cc1` , report its GI50.
[out] 49.5 µM (inactive)

Hello, the source for this data is ChEMBL document CHEMBL1201862, in case you need it.
